Source listed as PubChem BioAssay (EPA / NIEHS).

Target: Retinoic acid receptor RXR-alpha (Homo sapiens) (UniProt P19793)
Sequence (P19793 whole entry, looked up): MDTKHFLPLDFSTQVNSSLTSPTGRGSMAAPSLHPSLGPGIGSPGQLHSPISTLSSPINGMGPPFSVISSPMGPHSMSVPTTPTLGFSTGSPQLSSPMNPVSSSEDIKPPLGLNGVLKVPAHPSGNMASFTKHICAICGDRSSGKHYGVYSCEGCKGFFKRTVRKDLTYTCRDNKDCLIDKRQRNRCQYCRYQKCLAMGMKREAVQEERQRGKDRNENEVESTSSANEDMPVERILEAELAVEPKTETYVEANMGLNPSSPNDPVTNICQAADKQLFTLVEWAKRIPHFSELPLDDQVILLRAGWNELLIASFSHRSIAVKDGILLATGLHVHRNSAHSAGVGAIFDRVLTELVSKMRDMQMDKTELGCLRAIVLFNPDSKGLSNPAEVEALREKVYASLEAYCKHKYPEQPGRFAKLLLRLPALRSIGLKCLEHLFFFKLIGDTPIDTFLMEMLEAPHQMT
Experiment: ATG_RXRa_TRANS: Attagene TRANS-FACTORIAL HepG2 Assay for human Retinoid X Receptor alpha (RXRa) (AID 2283012)
Results filed as inconclusive are left out. Calls of active or inactive are those of the source. How the source made its calls: active means hit-call score of the fitted dose curve at least 0.9, where 1 is the maximum; inconclusive means response in the unintended direction; inactive means score below 0.9.
Valid outcomes are listed here; reply with one: active, inactive

Sample answers from the record:
CCC(C)(O)CCCC(C)C (stereo unspecified) :: inactive
CC(CCC(=O)O)(c1ccc(O)cc1)c1ccc(O)cc1 :: inactive
CC(C)c1cc(C(C)C)cc(C(C)C)c1 :: active
C=Cc1ccc(OC(C)=O)cc1 :: inactive
CC(=O)OC1CCCCC1C(C)(C)C (stereo unspecified) :: inactive

[Q] Test call, this molecule: CC(C=O)c1ccccc1 (stereo unspecified)
[A] inactive

[Q] # lookup: test call for CC(C)c1ccc2ncccc2c1
[A] inactive

* * *

Test: CEETOX_H295R_OHPREG_noMTC: CeeTox H295R High-throughput Steroidogenesis Assay for OH-Pregnenolone (OHPREG), maximum tolerated concentration (MTC) filtered results only (AID 2283912)
Conditions: actives raise or lower the signal
The source made the active and inactive calls. The calls were made as follows: active = hit-call score of the fitted dose curve at least 0.9, where 1 is the maximum; inactive = score below 0.9.
# output must be one of active, inactive

CCCC=C(C=O)CC :: inactive
CCCCC1C(=O)N(c2ccccc2)N(c2ccccc2)C1=O :: inactive
N#Cc1ccc(C(c2ccc(C#N)cc2)n2cncn2)cc1 :: inactive
COc1ccc(C(=O)/C(Br)=C\C(=O)O)cc1 :: active

[Q] What is the recorded call for this molecule in the test? N#Cc1ccc(C2CCCc3cncn32)cc1 (stereo unspecified)
[A] inactive

[Q] Kindly provide the recorded test outcome for the following molecule: CC(C)c1ccc(O)c(C(C)C)c1
[A] inactive

* * *

Molecular target: Estrogen receptor (Homo sapiens)
Experiment: OT_ERa_GFPERaERE_0120: Odyssey Thera (OT) 2-hour HeLa Transcription Induction Assay for Estrogen Receptor (AID 2283382)
Description: OT_ERa_GFPERaERE_0120 is a cell-based, single-readout assay that uses HeLa, a human cervix cell line, with measurements taken at 2 hours after chemical dosing in a 384-well plate.OT_ERa_GFPERaERE_0120 is one of one assay component(s) measured or calculated from the OT_ERa_GFPERaERE_0120 assay. […] This assay endpoint, OT_ERa_EREGFP_0120, was analyzed in the positive analysis fitting direction relative to DMSO as the negative control and baseline of activity. […]
The source made the active and inactive calls. The calls were made as follows: active = hit-call score of the fitted dose curve at least 0.9, where 1 is the maximum; inconclusive = response in the unintended direction; inactive = score below 0.9.
Your answer must be one of the following: Yes (active), No (inactive)

Reference set (6 entries):
CCCCCCOC(=O)CCCCC(=O)OCCCCCC :: No
CCCCCCC=O :: No
CCCCC/C=C\C/C=C\CCCCCCCC(=O)O :: No
CCCCCC[C@@H](O)C/C=C\CCCCCCCC(=O)OCC(O)CO (stereo not given in full) :: No
O=C(O)CC(C(=O)O)S(=O)(=O)O (stereo not given) :: No
O=C(O)CCC(=O)O :: No

[Q] // return assay outcome for CN(C)Cc1cc(CN(C)C)c(O)c(CN(C)C)c1
[A] No

[Q] What did this assay record as the result for CCCCc1ccc(Cl)cc1 ?
[A] No

[Q] Hi, do you know how CCCCNC(=S)NCCCC came out in this test?
[A] No

[Q] # outcome recorded in this test, key = CC1=CCC2CC1C2(C)C (stereo not given)
[A] No

[Q] Recorded test call requested for CC(=O)OCc1ccccc1
[A] No

[Q] Per the records of this test, what outcome belongs to O=C(Nc1ccccc1)c1cc(Cl)ccc1O ?
[A] No

[Q] Hi team, can someone confirm the assay call for O=C(Oc1ccccc1)c1ccccc1O ?
[A] No

[Q] Assay outcome for O=S(=O)(O)c1ccc(N=Nc2c(O)ccc3ccccc23)cc1 : what was it?
[A] No

[Q] GET /call?item= O=C(O)c1cc(O)c2ccccc2c1O returns the recorded outcome of this test.
[A] Yes

[Q] Recorded test outcome, item CC1=CC=C(C(C)C)CC1
[A] Yes

[Q] Please state the recorded outcome for this molecule: CC12CCC(CC1)C(C)(C)O2
[A] No
